- measurement_target: T1, IL10Rα and IL2Rγ on human primary cells (CD8 T cells, CD4 T cells, monocytes) (human) (UniProt Q13651)
- T1 sequence (looked up) 1: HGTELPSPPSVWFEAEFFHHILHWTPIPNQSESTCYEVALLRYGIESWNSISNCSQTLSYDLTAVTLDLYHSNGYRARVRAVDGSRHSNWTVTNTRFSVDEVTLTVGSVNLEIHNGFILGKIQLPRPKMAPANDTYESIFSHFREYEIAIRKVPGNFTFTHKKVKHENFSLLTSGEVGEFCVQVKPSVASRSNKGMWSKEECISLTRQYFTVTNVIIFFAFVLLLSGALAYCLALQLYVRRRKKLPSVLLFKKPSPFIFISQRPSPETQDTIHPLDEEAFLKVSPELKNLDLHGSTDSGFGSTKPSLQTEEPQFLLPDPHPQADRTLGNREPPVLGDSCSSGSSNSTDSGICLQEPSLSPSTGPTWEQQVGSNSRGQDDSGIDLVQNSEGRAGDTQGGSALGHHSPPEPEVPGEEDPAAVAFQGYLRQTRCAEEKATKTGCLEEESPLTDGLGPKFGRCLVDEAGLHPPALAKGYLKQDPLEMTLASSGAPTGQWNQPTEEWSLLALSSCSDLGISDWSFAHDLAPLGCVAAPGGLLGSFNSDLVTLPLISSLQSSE
- T1 sequence (looked up) 2: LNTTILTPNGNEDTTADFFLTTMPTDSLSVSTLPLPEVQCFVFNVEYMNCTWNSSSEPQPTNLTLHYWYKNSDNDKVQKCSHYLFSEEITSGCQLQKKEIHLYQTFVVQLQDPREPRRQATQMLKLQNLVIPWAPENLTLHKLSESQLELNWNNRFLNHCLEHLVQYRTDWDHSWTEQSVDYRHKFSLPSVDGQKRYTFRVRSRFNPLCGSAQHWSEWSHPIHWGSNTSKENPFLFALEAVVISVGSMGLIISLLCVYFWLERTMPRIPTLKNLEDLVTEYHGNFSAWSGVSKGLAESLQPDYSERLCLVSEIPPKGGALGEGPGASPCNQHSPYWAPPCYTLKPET
- method_summary: cell-based or functional assay
attribute_measured: pSTAT3 (MFI) in monocytes at 0.001 µM
Give a bare numeral; the unit MFI is implied.

{"binder": "hIL10Ra_VHH14-hIL2Rg_VHH19, linker …, tag his (bispecific antibody, not shown: small tags and cut ends) QVQLQESGGGSVQAGGSLRLSCGASGYTYSSYCMGWFRQVPGKEREGVAVIDSDGSTSYADSVKGRFTISKDNGKNTLYLQMNSLKPEDTAMYYCAADLGHYRPPCGVLYLGMDYWGKGTQVTVSSGGSGGSGGSGQVQLQESGGGSVQAGGSLRLSCTASGFTFDDREMNWYRQAPGNECELVSTISSDGSTYYADSVKGRFTISQDNAKNTVYLQMDSVKPEDTAVYYCAADFMIAIQAPGAGCWGQGTQVTVSS", "value_reported": 4710}
{"binder": "hIL10Ra_VHH14-hIL2Rg_VHH19, linker GGGS, tag his (bispecific antibody, not shown: small tags and cut ends) QVQLQESGGGSVQAGGSLRLSCGASGYTYSSYCMGWFRQVPGKEREGVAVIDSDGSTSYADSVKGRFTISKDNGKNTLYLQMNSLKPEDTAMYYCAADLGHYRPPCGVLYLGMDYWGKGTQVTVSSGGGSQVQLQESGGGSVQAGGSLRLSCTASGFTFDDREMNWYRQAPGNECELVSTISSDGSTYYADSVKGRFTISQDNAKNTVYLQMDSVKPEDTAVYYCAADFMIAIQAPGAGCWGQGTQVTVSS", "value_reported": 4510}

// below: pSTAT3 (MFI) in monocytes at 0.001 µM requested for another binder
Short answer for hIL10Ra_VHH14-hIL2Rg_VHH19, linker GS, tag his (bispecific antibody, not shown: small tags and cut ends) QVQLQESGGGSVQAGGSLRLSCGASGYTYSSYCMGWFRQVPGKEREGVAVIDSDGSTSYADSVKGRFTISKDNGKNTLYLQMNSLKPEDTAMYYCAADLGHYRPPCGVLYLGMDYWGKGTQVTVSSGSQVQLQESGGGSVQAGGSLRLSCTASGFTFDDREMNWYRQAPGNECELVSTISSDGSTYYADSVKGRFTISQDNAKNTVYLQMDSVKPEDTAVYYCAADFMIAIQAPGAGCWGQGTQVTVSS : pSTAT3 (MFI) in monocytes at 0.001 µM was 4820
